- target_entity: human IKK-2 (rhIKK-2 homodimer) (Homo sapiens, UniProt O14920)
- Construct: FLAG (DYKDDDDKD) (C); made in house; host or cells: insect cells (baculovirus, pFastBac)
- Sequence (O14920 whole entry): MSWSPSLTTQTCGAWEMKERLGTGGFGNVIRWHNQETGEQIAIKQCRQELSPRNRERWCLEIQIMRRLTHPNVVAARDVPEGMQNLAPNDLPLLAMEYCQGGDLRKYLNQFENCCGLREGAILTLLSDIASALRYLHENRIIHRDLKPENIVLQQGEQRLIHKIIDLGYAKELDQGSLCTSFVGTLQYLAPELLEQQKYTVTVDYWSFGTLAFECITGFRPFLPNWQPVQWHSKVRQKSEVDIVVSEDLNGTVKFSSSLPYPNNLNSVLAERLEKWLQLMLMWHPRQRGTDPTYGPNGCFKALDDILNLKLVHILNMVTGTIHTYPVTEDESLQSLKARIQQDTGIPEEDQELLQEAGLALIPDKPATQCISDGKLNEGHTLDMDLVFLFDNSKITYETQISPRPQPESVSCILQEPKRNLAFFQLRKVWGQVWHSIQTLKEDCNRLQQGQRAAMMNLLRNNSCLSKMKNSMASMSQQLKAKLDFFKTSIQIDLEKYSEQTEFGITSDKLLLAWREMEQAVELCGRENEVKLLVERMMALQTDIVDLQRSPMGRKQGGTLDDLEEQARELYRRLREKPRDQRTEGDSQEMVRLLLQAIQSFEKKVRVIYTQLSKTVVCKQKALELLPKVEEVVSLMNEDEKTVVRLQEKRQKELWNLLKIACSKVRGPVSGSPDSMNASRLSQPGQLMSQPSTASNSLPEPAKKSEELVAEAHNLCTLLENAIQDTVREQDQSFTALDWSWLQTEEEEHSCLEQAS
- protocol_details: IKK-2 Resin Enzyme Assay (Human IKK-2 Enzyme Assay)
- Format: biochemical
- condition_summary: human IKK-2, resin enzyme assay; read-out: IC50 (μM) hIKK-2
The entries below come with measured IC50 values attached.

Example compounds with recorded IC50:
NC(=O)Nc1cn(-c2cccc(-c3cc(F)cc(F)c3)c2)nc1C(N)=O [Example 350]    > 20 µM
NC(=O)Nc1nn(-c2ccc(-c3cc(Cl)cc(Cl)c3)cc2)cc1C(N)=O [Example 137]    > 20 µM

// moving on: another record for IC50
Q: Quick one: IC50 for NC(=O)Nc1cn(-c2cccc(-c3ccccc3C(F)(F)F)c2)nc1C(N)=O [Example 366] ?
Result: > 20 µM

Origin of the recorded values: patent US20050197338A1
